Data provenance is patent US6867207B2.

Hi there, I'd appreciate the recorded % inh. (percentage inhibition of IL-5 production) for every entry that follows.
System: IL-5 production
ASSAY OVERVIEW: In vitro inhibition of IL-5 production in human blood (phytohemagglutinin-stimulated whole blood, ELISA);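 also: values marked with an asterisk were tested at 10 µM and unmarked values at 1 µM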
Type: cell-based
CONDITION INFO: test dose 1×10^−6 M, 48 hours
Respond with the bare value in %.

Exercise: Test system IL-5 production; read-out % inh. (percentage inhibition of IL-5 production); what value for O=c1cnn(-c2cc(Cl)c(C(c3ccc(Cl)cc3)c3nnc(-c4ccccc4)o3)c(Cl)c2)c(=O)[nH]1 (stereo not drawn) [Compound 189] ?
Solution: 82

Exercise: Test system IL-5 production; read-out % inh. (percentage inhibition of IL-5 production); what value for O=c1cnn(-c2cc(Cl)c(C(c3ccc(Cl)cc3)c3nnc(-c4ccc(Br)cc4)o3)c(Cl)c2)c(=O)[nH]1 (racemic) [Compound 168] ?
Solution: 80

Exercise: Test system IL-5 production; read-out % inh. (percentage inhibition of IL-5 production); what value for COCCNC(=O)c1sc(C(c2ccc(Cl)cc2)c2c(Cl)cc(-n3ncc(=O)[nH]c3=O)cc2Cl)nc1-c1ccccc1 (racemic) [Comp 307] ?
Solution: 78

----------
Test system: IL-5 production
ASSAY OVERVIEW: In vitro inhibition of IL-5 production in human blood (phytohemagglutinin-stimulated whole blood, ELISA);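 also: values marked with an asterisk were tested at 10 µM and unmarked values at 1 µM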
Format: cell-based
CONDITION INFO: test dose 1×10^−6 M, 48 hours
Protocol: In Vitro Inhibition of IL-5 Production in Human Blood Human Whole Blood Stimulation Peripheral blood from healthy male donors was drawn into heparinized syringes (12.5 U heparin/ml). Blood samples were three-fold diluted in RMPI 1640 medium (Life Technologies, Belgium) supplemented with 2 mM L-glutamine, 100 U/ml penicillin and 100 μg/ml streptomycin, and 300 μl fractions were distributed in 24-well multidisc plates. […]
MEASUREMENT KIND: % inh. (percentage inhibition of IL-5 production)

Exercise: State the recorded % inh. (percentage inhibition of IL-5 production) for this entry: CN(C)CCc1sc(C(c2ccc(Cl)cc2)c2c(Cl)cc(-n3ncc(=O)[nH]c3=O)cc2Cl)nc1-c1ccccc1 (racemic)
Solution: 92%

Exercise: State the recorded % inh. (percentage inhibition of IL-5 production) for this entry: CNCc1sc(C(c2ccc(Cl)cc2)c2c(Cl)cc(-n3ncc(=O)[nH]c3=O)cc2Cl)nc1-c1ccccc1.Cl.O.O.O (racemic)
Solution: 92%

Exercise: State the recorded % inh. (percentage inhibition of IL-5 production) for this entry: O=c1cnn(-c2cc(Cl)c(C(c3ccc(Cl)cc3)c3nc(-c4ccccc4)c(CNS(=O)(=O)Cc4ccccc4)s3)c(Cl)c2)c(=O)[nH]1 (racemic)
Solution: 88%

Exercise: State the recorded % inh. (percentage inhibition of IL-5 production) for this entry: O.O=c1cnn(-c2cc(Cl)c(C(c3ccc(Cl)cc3)c3nnc(-c4ccccc4Cl)o3)c(Cl)c2)c(=O)[nH]1 (racemic)
Solution: 90%

Exercise: State the recorded % inh. (percentage inhibition of IL-5 production) for this entry: O=c1cnn(-c2cc(Cl)c(C(Sc3ncccn3)c3ccc(Cl)cc3)c(Cl)c2)c(=O)[nH]1 (racemic) [Compound 340]
Solution: 88%

Exercise: State the recorded % inh. (percentage inhibition of IL-5 production) for this entry: COc1ccccc1-c1nnc(C(c2ccc(Cl)cc2)c2c(Cl)cc(-n3ncc(=O)[nH]c3=O)cc2Cl)o1 (racemic) [Compound 174]
Solution: 83%

Exercise: State the recorded % inh. (percentage inhibition of IL-5 production) for this entry: O=c1cnn(-c2cc(Cl)c(C(Sc3cscn3)c3ccc(Cl)c(C(F)(F)F)c3)c(Cl)c2)c(=O)[nH]1 (centres unmarked)
Solution: 93%

Exercise: State the recorded % inh. (percentage inhibition of IL-5 production) for this entry: O=C(CO)Nc1cccc(-c2nnc(C(c3ccc(Cl)cc3)c3c(Cl)cc(-n4ncc(=O)[nH]c4=O)cc3Cl)o2)c1 (racemic)
Solution: 54%
